- Test system: Caco-2
- Format: cell-based, human
Kindly state pIC50 for each of the entries shown.
Numbers only, as −log10 of the molar value.

compound | pIC50
CC(=O)OC[C@]12C[C@H](OC(=O)CC(C)C)C(C)=C[C@H]1O[C@@H]1[C@H](O)[C@@H](O)[C@@]2(C)[C@]12CO2 [HT-2, HT-2 toxin] | 7.35

Lookup: Report pIC50 for CC(=O)OC[C@]12C[C@H](OC(=O)CC(C)C)C(C)=C[C@H]1O[C@@H]1[C@H](O)[C@@H](OC(C)=O)[C@@]2(C)[C@]12CO2 [T-2, T-2 toxin] please.
Found: 7.87
